- System: SRMS
- CONDITION DETAILS: concentration: 1 μM, replicates: in singlicate; n = 1
QUANTITY: %Inh (%)
// units = %; emit number, no label

// worked examples, %Inh included
CSc1nn2c(=O)cc(N3CCOCC3)nc2n1Cc1cccc(Cl)c1Cl
0
COc1cc2ncnc(Nc3ccc(OCc4ccccc4Br)c(Cl)c3)c2cc1OC.Cl
0
COC(=O)c1cccc(NC(=O)NCCNc2ccnc(Nc3ccc(F)cc3)n2)c1
0
CCn1c(-c2ccncc2)nc2cnccc21
16
COc1ccc(NC(=O)Nc2ccc(C)c(-c3ccc(C(=O)Nc4ccncc4)cc3)c2)cc1
0
CSc1ccc(NC2=C(c3ccccc3Cl)C(=O)NC2=O)cc1
0
O=C(NCCCN1CCCC1=O)c1cnc(NCc2cc(Cl)ccc2Cl)nc1NC1CCNCC1
0
CC(C)(C)c1ccc(-n2cnc3c(N)ncnc32)cc1
14
Cc1ccc(NC(=O)c2cccc(C#N)c2)cc1-c1ccc(C(=O)Nc2ccncc2)cc1
0
CC(C)(C)OC(=O)NC1CCCN(c2cc(-c3ccc4c(N)n[nH]c4c3)nc(N)n2)C1 (stereo not drawn)
0

Please examine the following record next.
Exercise: Looking for the measured %Inh of Cn1ccc2ncnc(Oc3ccc(NC(=O)Nc4cccnc4)c(Cl)c3)c21 , can you help?
Key: 0

====

- Test system: LYN;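 further: kd values determined as follow-up on hits from a single-replicate KINOMEscan panel screen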
QUANTITY: pKd
In simple prose, pKd is minus the logarithm base ten of a concentration in moles per litre.

Exercise: Lab note: need pKd for COc1cc2c(Nc3cccc(NC(=O)c4ccccc4)c3)ncnc2cc1OCCCN1CCOCC1 on LYN, anyone have it?
Key: 6.89

====

- System: ACVR2A
- CONDITION DETAILS: concentration: 1 μM, replicates: in singlicate; n = 1
QUANTITY: %Inh (%)
// units = %; emit number, no label

Cn1ccc2ncnc(Nc3ccc(Oc4cccc(Cl)c4)c(Cl)c3)c21
0
O=C(CCO)NCCn1ccc2ncnc(Nc3ccc(Oc4cccc(C(F)(F)F)c4)c(Cl)c3)c21
0
C[C@@H]1CCN(C(=O)CO)C[C@@H]1N(C)c1ncnc2[nH]ccc12
0
N#Cc1ccc(Oc2ccc(Nc3ncnc4cc[nH]c34)cc2Cl)cc1
27
CNc1nccc(-c2c(-c3ccc(F)cc3)ncn2C2CCN(C)CC2)n1
0

Exercise: Lab note: need %Inh for FC(F)(F)c1ccc(-c2cc(-c3c[nH]nc3-c3ccccn3)ccn2)cc1 on ACVR2A, anyone have it?
Key: 0

Exercise: Lab note: need %Inh for OCCOCCn1ccc2ncnc(Nc3ccc(Oc4cccc(Cl)c4)c(Cl)c3)c21 on ACVR2A, anyone have it?
Key: 8

Exercise: Lab note: need %Inh for COc1ccc(-c2nc3n(c2-c2ccncc2)CCC3)cc1 on ACVR2A, anyone have it?
Key: 0

Exercise: Lab note: need %Inh for C[C@H]1CC[C@@H](C(=O)Nc2ccccc2)CN1c1cc(-c2ccc3c(N)n[nH]c3c2)nc(N)n1 on ACVR2A, anyone have it?
Key: 0

====

- System: MAK
- CONDITION DETAILS: concentration: 1 μM, replicates: in singlicate; n = 1
Assign yes (1) to entries whose %Inh meets or exceeds 10%; assign no (0) to the rest.

The examples below pair each entry with its known result.
CNc1nccc(-c2c(-c3ccc(F)cc3)ncn2C2CCN(C)CC2)n1
no (0)
COc1cc2ncnc(Nc3ccc(OCc4ccccc4Br)c(Cl)c3)c2cc1OC.Cl
yes (1)
Nc1nc(-c2ccccn2)c(-c2ccnc3ccccc23)s1
yes (1)
c1ccc(-c2ccc3c(-c4ccnc(Nc5ccc6c(c5)OCCO6)n4)cnn3n2)cc1
yes (1)
Nc1n[nH]c2nnc(-c3ccccc3)cc12
no (0)

As a next step, examine the compound that follows.
Exercise: Tell me whether %Inh is at least 10% here: O=C(Nc1ccccc1)Nc1ccc(Oc2ccc3nccn3n2)cc1
Key: no (0)

====

- Tested on: YANK3
- Construct: gene STK32C
- CONDITION DETAILS: concentration: 1 μM, replicates: in singlicate; n = 1
QUANTITY: %Inh
Please answer using the number first and the unit second.

Cl.Cl.c1ccc(-c2cc3ccncc3cc2OC2CCNCC2)cc1 [GSK1122999]
0%
Cc1ccc(C)c(NC(=O)NCCNc2ccnc(Nc3ccc(F)cc3)n2)c1 [GSK1379878]
0%
CCn1c(-c2ccncc2)nc2cnccc21 [SB-735216]
7%
CC(C)(C)OC(=O)NC1CCCN(c2cc(-c3ccc4c(N)n[nH]c4c3)nc(N)n2)C1 (stereo not shown) [GSK2286096]
0%
CSc1ccc(NC2=C(c3ccccc3Cl)C(=O)NC2=O)cc1 [SB-342411]
9%
CC(C)N1CCC(n2cnc(-c3ccc(F)cc3)c2-c2ccnc(N)n2)CC1 [SB-223132]
0%
COC(=O)c1c(-c2ccccc2)c2cc(Cl)ccc2c(=O)n1Cc1ccc(S(C)(=O)=O)cc1
0%
O=C(Nc1ccccc1)Nc1ccc(Oc2ccc3nccn3n2)cc1
0%

Exercise: Looking for the measured %Inh of CC(C)(C)c1ccc(-n2cnc3c(N)ncnc32)cc1 [SKF-97263] , can you help?
Key: 11%

Exercise: Looking for the measured %Inh of CN1c2ccc(-c3ccc(C(=O)NCCO)cc3)cc2-c2[nH]ncc2S1(=O)=O , can you help?
Key: 0%

Exercise: Looking for the measured %Inh of Cc1ccc(O)cc1Nc1cc(C(F)(F)F)nc2ccc(-c3ccncc3)cc12 [GW630823] , can you help?
Key: 0%

Exercise: Looking for the measured %Inh of Cl.c1ccc(Cn2ccc3cc(Nc4ncnc5ccccc45)ccc32)cc1 [GW275568] , can you help?
Key: 0%

Exercise: Looking for the measured %Inh of CCc1nc(-c2cccc(C)c2)c(-c2ccnc(NC(=O)c3ccccc3)c2)s1 , can you help?
Key: 15%

Exercise: Looking for the measured %Inh of Nc1nccc2scc(-c3ccc4c(c3)CCN4C(=O)Cc3cc(F)ccc3F)c12 [GSK2587663] , can you help?
Key: 20%

Exercise: Looking for the measured %Inh of Nc1nc(-c2cccnc2)c(-c2ccnc3ccccc23)s1 [GW684083] , can you help?
Key: 0%

Exercise: Looking for the measured %Inh of O=C(Nc1ccccc1F)NC1CCN(c2ccnc(Nc3ccc(F)cc3)n2)C1 (stereo not shown) [GSK1379722] , can you help?
Key: 21%

Exercise: Looking for the measured %Inh of Cn1ccc2ncnc(Nc3ccc(Oc4cccc(Cl)c4)c(Cl)c3)c21 , can you help?
Key: 17%

Exercise: Looking for the measured %Inh of C[C@H]1CC[C@@H](C(=O)Nc2ccccc2)CN1c1cc(-c2ccc3c(N)n[nH]c3c2)nc(N)n1 [GSK2283293] , can you help?
Key: 4%

Exercise: Looking for the measured %Inh of FC(F)(F)c1ccc(-c2nn3ncccc3c2-c2ccnc(Nc3cccc(C(F)(F)F)c3)n2)cc1 [GW828205] , can you help?
Key: 0%

====

This listing pairs molecules with measured %Inh.
- Tested on: JNK3
- Construct: gene MAPK10
- CONDITION DETAILS: concentration: 1 μM, replicates: in singlicate; n = 1
// units = %; emit number, no label

// worked examples, %Inh included
Cn1cc(-c2ccc3c(c2)CCN3C(=O)Cc2cccc(C(F)(F)F)c2)c2c(N)ncnc21 [GSK2606414]
0
Fc1cccc(COc2ccc(Nc3ncnc4sc(-c5ccc[nH]5)cc34)cc2Cl)c1 [GW707818]
0
O=C(Nc1n[nH]c2nc(-c3ccco3)c(Br)cc12)c1ccc(CN2CCCC2)cc1.O=C(O)[C@H](O)[C@@H](O)C(=O)O [SB-742352]
0
Fc1ccc(-c2ncn(CCCNCc3ccccc3)c2-c2ccncc2)cc1
57
Cl.c1ccc(Cn2ccc3cc(Nc4ncnc5ccccc45)ccc32)cc1 [GW275568]
16
FC(F)(F)c1ccc(-c2nn3ncccc3c2-c2ccnc(Nc3cccc(C(F)(F)F)c3)n2)cc1 [GW828205]
0

Exercise: Looking for the measured %Inh of Clc1ccc(-c2cc(-c3c[nH]nc3-c3ccccn3)ccn2)cc1 [GW681251] , can you help?
Key: 33

Exercise: Looking for the measured %Inh of Cl.Cn1ccc(-c2cccc(Nc3ccnc4cc(-c5nccs5)ccc34)c2)n1 [GW525701] , can you help?
Key: 2

====

- Tested on: ULK2
- CONDITION DETAILS: concentration: 1 μM, replicates: in singlicate; n = 1
QUANTITY: %Inh
Please answer using the number first and the unit second.

// worked examples, %Inh included
C[C@@H]1CCN(C(=O)CO)C[C@@H]1N(C)c1ncnc2[nH]ccc12
0%
Cl.Cn1ccc(-c2cccc(Nc3ccnc4cc(-c5nccs5)ccc34)c2)n1 [GW525701]
0%
CC(C)N1CCC(n2cnc(-c3ccc(F)cc3)c2-c2ccnc(N)n2)CC1 [SB-223132]
0%

Exercise: Looking for the measured %Inh of Fc1ccc(-c2ncn(CCCNCc3ccccc3)c2-c2ccncc2)cc1 , can you help?
Key: 19%

Exercise: Looking for the measured %Inh of COc1cc2c(Nc3cccc(NC(=O)c4ccccc4)c3)ncnc2cc1OCCCN1CCOCC1 [GSK223810] , can you help?
Key: 0%

Exercise: Looking for the measured %Inh of N#Cc1ccc(Oc2ccc(Nc3ncnc4cc[nH]c34)cc2Cl)cc1 , can you help?
Key: 34%

Exercise: Looking for the measured %Inh of Cl.O=S(=O)(c1cccc(F)c1)c1ccc(Nc2ncnc3cc(Br)sc23)cc1Cl [GSK306886] , can you help?
Key: 0%
